Values compiled from patent US9777004B2.

- targetSystem: human full-length MKNK1 (Homo sapiens (Human), UniProt Q9BUB5, T344D)
- Sequence (Q9BUB5 other isoform, or with tags, fused parts or gaps T344D): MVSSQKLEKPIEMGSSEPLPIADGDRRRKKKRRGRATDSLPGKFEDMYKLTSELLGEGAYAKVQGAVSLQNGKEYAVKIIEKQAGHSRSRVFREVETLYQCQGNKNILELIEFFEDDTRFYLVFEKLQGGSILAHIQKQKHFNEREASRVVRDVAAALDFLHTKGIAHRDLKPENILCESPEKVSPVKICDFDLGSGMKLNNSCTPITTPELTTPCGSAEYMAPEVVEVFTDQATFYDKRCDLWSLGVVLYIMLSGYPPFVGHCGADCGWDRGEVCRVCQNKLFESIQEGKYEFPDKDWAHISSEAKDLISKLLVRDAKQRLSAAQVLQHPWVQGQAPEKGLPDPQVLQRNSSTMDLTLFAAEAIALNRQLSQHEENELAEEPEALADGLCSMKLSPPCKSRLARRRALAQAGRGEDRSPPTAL
- protocolNotes: MKNK1 kinase high ATP assay (TR-FRET)
- Type: biochemical
- settings: 2 mM ATP, 15 min preincubation
pIC50: −log10 of the molar value.
measurementType: pIC50

P: CC(C)(C)NCCOc1ccc2ncc(-c3cc4ccccc4o3)n2n1 [Example 18]
Q: CNCC(Oc1ccc2ncc(-c3cc4ccccc4o3)n2n1)c1ccccc1 (single isomer, unassigned; (-)) [Example 29]
R: CC(C)(C)CNCC(Oc1ccc2ncc(-c3cc4ccccc4o3)n2n1)c1ccccc1 (stereo not drawn) [Example 30]
S: CC(C)(C)CNCCCOc1ccc2ncc(-c3cc4ccccc4o3)n2n1 [Example 4]
Ask: List the items above again, this time ordered by increasing pIC50. Could you list the labels in the order requested?
Reply: R, Q, P, S
(R: 6.62, Q: 6.91, P: 7.43, S: 7.89)

I: CNCC(C)Oc1ccc2ncc(-c3cc4ccccc4o3)n2n1 (stereo not drawn) [Example 26]
II: c1ccc2oc(-c3cnc4ccc(OCC5CNC5)nn34)cc2c1 [Example 14]
III: COc1cccc2oc(-c3cnc4ccc(OC[C@H]5CNCCO5)nn34)cc12 [Example 2]
Ask: Arrange the 3 compounds by rising pIC50, starting with the smallest. Could you list the labels in the order requested?
Reply: I, II, III
(I: 7.03, II: 7.57, III: 7.96)

----------
- targetSystem: human full-length MKNK1 (Homo sapiens (Human), UniProt Q9BUB5, T344D)
- protocolNotes: MKNK1 kinase high ATP assay (TR-FRET)
- Format: biochemical
- settings: 2 mM ATP, 15 min preincubation
measurementType: IC50 (nM)

{"compound": "Fc1cccc2oc(-c3cnc4ccc(OC[C@H]5CNCCO5)nn34)cc12", "targetSystem": "human full-length MKNK1 (Homo sapiens (Human), UniProt Q9BUB5, T344D)", "unitAbbrev": "nM", "IC50": 15}

I: CC(C)NCCCOc1ccc2ncc(-c3cc4ccccc4o3)n2n1
II: CNC(C)COc1ccc2ncc(-c3cc4ccccc4o3)n2n1 (stereo not shown)
III: Clc1ccc2oc(-c3cnc4ccc(OCC[C@@H]5CCCN5)nn34)cc2c1
Ask: Ranking field: IC50; order: falling. Could you list the labels in the order requested?
Reply: III, II, I

----------
- targetSystem: human full-length MKNK1 (Homo sapiens (Human), UniProt Q9BUB5, T344D)
- protocolNotes: MKNK1 kinase assay (TR-FRET)
- Type: biochemical
- settings: 10 μM ATP, 15 min preincubation
pIC50: −log10 of the molar value.
measurementType: pIC50

Study these solved cases before continuing.
{"molecule": "CC(C)NCC(Oc1ccc2ncc(-c3cc4ccccc4o3)n2n1)c1ccccc1 (stereo not drawn) [Example 27]", "pIC50": 7.44}
{"molecule": "CNCC(Oc1ccc2ncc(-c3cc4ccccc4o3)n2n1)c1ccccc1 (single isomer, unassigned; (-)) [Example 29]", "pIC50": 7.01}
{"molecule": "c1ccc2oc(-c3cnc4ccc(OCCNCC5CC5)nn34)cc2c1 [Example 6]", "pIC50": 8.15}
{"molecule": "Fc1cccc2oc(-c3cnc4ccc(OC[C@H]5CNCCO5)nn34)cc12 [Example 33]", "pIC50": 8.00}
{"molecule": "CC(C)(C)CNCCCOc1ccc2ncc(-c3cc4ccccc4o3)n2n1 [Example 4]", "pIC50": 8.40}

1: CC(C)(C)CNCCOc1ccc2ncc(-c3cc4ccccc4o3)n2n1 [Example 12]
2: CC(C)(C)CNCC(Oc1ccc2ncc(-c3cc4ccccc4o3)n2n1)c1ccccc1 (stereo not drawn) [Example 30]
Ask: // compare measured pIC50, left 1 , right 2 , return larger Returns: label corresponding to the selected item.
Reply: 1

----------
- targetSystem: human full-length MKNK1 (Homo sapiens (Human), UniProt Q9BUB5, T344D)
- protocolNotes: MKNK1 kinase assay (TR-FRET)
- Assay type: biochemical
- settings: 10 μM ATP, 15 min preincubation
measurementType: IC50 (nM)

{"smilesStructure": "c1ccc2oc(-c3cnc4ccc(OCCNC5CC5)nn34)cc2c1", "targetSystem": "human full-length MKNK1 (Homo sapiens (Human), UniProt Q9BUB5, T344D)", "unitAbbrev": "nM", "IC50": 8}

a: Clc1ccc2oc(-c3cnc4ccc(OCC[C@@H]5CCCN5)nn34)cc2c1
b: c1ccc2oc(-c3cnc4ccc(OCC[C@@H]5CCCN5)nn34)cc2c1
c: CC(C)NCCCOc1ccc2ncc(-c3cc4ccccc4o3)n2n1
Ask: Arrange the 3 compounds by rising IC50, starting with the smallest. Could you list the labels in the order requested?
Reply: c, b, a
